Consider the following molecules; for each one, report its TGI.
System: UACC-62 melanoma
Test: NCI tumour cell line growth inhibition, 48 h

GET /value?item= CC(=O)C1C(=O)NC(=O)C1=O (stereo not drawn) &field=TGI returns > 100 µM

For record O=C(O)/C(Cl)=C(\Cl)C(=O)NC1C2CC3CC(C2)CC1C3 (stereo not drawn) the listed TGI is > 100 µM

For reference, reported TGI for CCN(CC)CCN1C(=O)c2c(c(-c3ccccc3)c3ccccc3c2-c2ccccc2)C1=O stands at > 100 µM

So, O=C(Cc1nc2ccccc2s1)C(=O)Nc1cccc(Cl)c1 ? Its TGI was > 100 µM

// field: TGI; key: CC1(C)OB(O)OC1(C)C ; value = > 100 µM

Fill in TGI for each of the 7 molecules listed.
1. Cc1nn(C(=O)c2ccncc2)c2c1C(c1ccccc1)SC(N)=N2 (stereo not drawn)
2. O=C(O)CS
3. CCN(CC)CCCC(C)Nc1ccnc2ccc3nn(C)nc3c12 (stereo not drawn)
4. N=c1c2c(=S)n(-c3ccccc3)c(=S)n(-c3ccccc3)c2nc(SCCCN2CCN(c3cccc(Cl)c3)CC2)n1-c1ccccc1
5. OC[C@]1(n2nc3ccccc3n2)OC[C@@H]1c1ccccc1
6. CC1=CCC2C3(C)CCC2(C(C)C)C1C3 (stereo not drawn) (tested in a mixture with another compound)
7. Cc1cc(N=Nc2c(O)ccc3ccccc23)ccc1N=Nc1cccc([N+](C)(C)C)c1

Reply:
1: > 10 µM; 2: > 100 µM; 3: > 100 µM; 4: > 100 µM; 5: > 100 µM; 6: > 100 µM; 7: > 61.6 µM

Looking up NC(=O)NC(=O)c1cccc(CNc2ccc(C(=O)N[C@@H](CCC(=O)O)C(=O)O)cc2)n1 , I see its TGI listed as > 100 µM
